- Study System: Platelet glycoprotein 4 (Rattus norvegicus)
- Assay Details: Inhibition of photoactivatable [125I]-Tyr-Bpa-Ala-hexarelin binding to CD36 in Sprague-Dawley rat heart membranes after 60 mins by SDS-PAGE analysis
Starred links: 1 amine or outer side, 2 acyl side, 3 side chain; linkers in the order of their positions; H or OH if unused. Non-standard residues stand in square brackets, D forms with d. Residues, ends and D or L forms follow the SMILES beside them. azaPhe = O=C(N(Cc1ccccc1)N[*:1])[*:2]
Assay Readout: IC50 (µM)

// below: answered compounds
Compound: Cc1cccc(C)c1CN(NC(=O)[C@H](C)NC(=O)[C@@H](Cc1c[nH]c2ccccc12)NC(=O)[C@@H](N)Cc1cnc[nH]1)C(=O)N[C@H](Cc1ccccc1)C(=O)N[C@@H](CCCCN)C(N)=O
Study System: Platelet glycoprotein 4 (Rattus norvegicus)
IC50 / µM: 5.51

Compound: C[C@H](N)C(=O)N[C@H](Cc1c[nH]c2ccccc12)C(=O)N[C@@H](C)C(=O)NN(Cc1ccc(Cl)cc1)C(=O)N[C@H](Cc1ccccc1)C(=O)N[C@@H](CCCCN)C(N)=O
Study System: Platelet glycoprotein 4 (Rattus norvegicus)
IC50 / µM: 4.94

P = C[C@H](NC(=O)[C@@H](Cc1c[nH]c2ccccc12)NC(=O)[C@@H](N)Cc1cnc[nH]1)C(=O)NN(Cc1ccc(Br)cc1)C(=O)N[C@H](Cc1ccccc1)C(=O)N[C@@H](CCCCN)C(N)=O
Q = C[C@H](N)C(=O)N[C@H](Cc1c[nH]c2ccccc12)C(=O)N[C@@H](C)C(=O)NN(Cc1ccc(Br)cc1)C(=O)N[C@H](Cc1ccccc1)C(=O)N[C@@H](CCCCN)C(N)=O
R = C[C@H](N)C(=O)N[C@H](Cc1c[nH]c2ccccc12)C(=O)N[C@@H](C)C(=O)NN(Cc1ccccc1)C(=O)N[C@H](Cc1ccccc1)C(=O)N[C@@H](CCCCN)C(N)=O (H-A[dW]A[azaPhe][dF]K-NH2)
Form: Sort by [IC50] Order [ ascending ] Field: ranking. Enter the labels in the order requested.
P, Q, R

* * *

- Study System: Platelet glycoprotein 4 (Mus musculus) (UniProt Q08857)
- Sequence (Q08857 whole entry): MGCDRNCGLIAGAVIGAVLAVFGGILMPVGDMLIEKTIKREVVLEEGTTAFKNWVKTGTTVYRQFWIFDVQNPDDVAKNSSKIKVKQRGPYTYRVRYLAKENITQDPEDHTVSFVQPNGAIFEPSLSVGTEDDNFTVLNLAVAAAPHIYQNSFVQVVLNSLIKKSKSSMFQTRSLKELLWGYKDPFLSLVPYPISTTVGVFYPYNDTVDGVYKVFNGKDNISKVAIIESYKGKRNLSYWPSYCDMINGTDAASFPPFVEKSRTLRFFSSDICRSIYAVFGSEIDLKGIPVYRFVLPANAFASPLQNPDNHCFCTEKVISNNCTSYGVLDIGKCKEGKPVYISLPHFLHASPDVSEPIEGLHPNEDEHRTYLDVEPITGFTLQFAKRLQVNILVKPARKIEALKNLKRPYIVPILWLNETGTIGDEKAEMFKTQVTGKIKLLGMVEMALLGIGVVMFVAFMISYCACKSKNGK
- Assay Details: Modulation of CD36 in mouse […] cells assessed as inhibition of R-FSL1-induced NO over production at 1 uM preincubated for 1 hr followed by overnight R-FSL1 stimulation by DAN-fluorescence assay relative to control
- Assay type: cell-based
The source made the active and inactive calls. The rule behind the calls is not given here. Starred links: 1 amine or outer side, 2 acyl side, 3 side chain; linkers in the order of their positions; H or OH if unused. Non-standard residues stand in square brackets, D forms with d. Residues, ends and D or L forms follow the SMILES beside them. azaTyr = O=C(N(Cc1ccc(O)cc1)N[*:1])[*:2]; azaPhe = O=C(N(Cc1ccccc1)N[*:1])[*:2]
Pick one: active, inactive

Field: example entries. Status: answers known.
Compound: COc1ccc(CN(NC(=O)[C@H](C)NC(=O)[C@@H](Cc2c[nH]c3ccccc23)NC(=O)[C@@H](N)Cc2cnc[nH]2)C(=O)N[C@H](Cc2ccccc2)C(=O)N[C@@H](CCCCN)C(N)=O)cc1
Study System: Platelet glycoprotein 4 (Mus musculus) (UniProt Q08857)
Label Class: active
//
Compound: CCCOc1ccc(CN(NC(=O)[C@H](C)NC(=O)[C@@H](Cc2c[nH]c3ccccc23)NC(=O)[C@@H](N)Cc2cnc[nH]2)C(=O)N[C@H](Cc2ccccc2)C(=O)N[C@@H](CCCCN)C(N)=O)cc1
Study System: Platelet glycoprotein 4 (Mus musculus) (UniProt Q08857)
Label Class: active
//
Compound: C[C@H](NC(=O)[C@@H](Cc1c[nH]c2ccccc12)NC(=O)[C@@H](N)Cc1cnc[nH]1)C(=O)NN(Cc1ccc(O)cc1)C(=O)N[C@H](Cc1ccccc1)C(=O)N[C@@H](CCCCN)C(N)=O (H-H[dW]A[azaTyr][dF]K-NH2)
Study System: Platelet glycoprotein 4 (Mus musculus) (UniProt Q08857)
Label Class: inactive

Lab log entry: C[C@H](NC(=O)[C@@H](Cc1c[nH]c2ccccc12)NC(=O)[C@@H](N)Cc1cnc[nH]1)C(=O)NN(Cc1ccccc1)C(=O)N[C@H](Cc1ccccc1)C(=O)N[C@@H](CCCCN)C(N)=O (H-H[dW]A[azaPhe][dF]K-NH2) — outcome as called in the assay?
inactive

Answer briefly: the call reported for C[C@H](NC(=O)[C@@H](Cc1c[nH]c2ccccc12)NC(=O)[C@@H](N)Cc1cnc[nH]1)C(=O)NN(Cc1ccc(Br)cc1)C(=O)N[C@H](Cc1ccccc1)C(=O)N[C@@H](CCCCN)C(N)=O in this assay.
active

* * *

- Study System: Platelet glycoprotein 4 (Rattus norvegicus) (UniProt Q07969)
- Sequence (Q07969 whole entry): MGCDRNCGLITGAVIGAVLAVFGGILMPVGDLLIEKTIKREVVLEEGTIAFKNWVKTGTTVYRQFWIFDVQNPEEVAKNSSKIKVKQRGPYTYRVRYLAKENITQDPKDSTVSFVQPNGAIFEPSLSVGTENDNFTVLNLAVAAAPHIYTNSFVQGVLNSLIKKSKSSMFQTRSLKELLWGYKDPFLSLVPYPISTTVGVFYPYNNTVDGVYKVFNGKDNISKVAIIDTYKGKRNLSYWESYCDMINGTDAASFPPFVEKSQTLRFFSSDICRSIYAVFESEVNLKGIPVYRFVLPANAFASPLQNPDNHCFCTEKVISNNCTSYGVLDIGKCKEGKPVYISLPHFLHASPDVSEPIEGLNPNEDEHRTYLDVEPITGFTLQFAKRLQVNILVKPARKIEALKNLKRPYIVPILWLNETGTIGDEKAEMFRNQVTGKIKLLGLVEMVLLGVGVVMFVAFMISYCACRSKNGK
- Assay Details: Inhibition of photoactivatable [125I]-Tyr-Bpa-Ala-hexarelin binding to CD36 in Sprague-Dawley rat heart membranes after 60 mins by SDS-PAGE analysis relative to H-His-D-Trp-Ala-aza(3-hydroxy)Phe-D-Phe-Lys-NH2
- Assay type: cell membranes
- Stated Conditions: Membrane
Starred links: 1 amine or outer side, 2 acyl side, 3 side chain; linkers in the order of their positions; H or OH if unused. Non-standard residues stand in square brackets, D forms with d. Residues, ends and D or L forms follow the SMILES beside them. dTrp(2-Me) = Cc1[nH]c2ccccc2c1C[C@@H](N)C(=O)O; azaTyr = O=C(N(Cc1ccc(O)cc1)N[*:1])[*:2]
Assay Readout: fold change (FC)

Some molecules with recorded fold change (FC):
Molecule: C[C@H](NC(=O)[C@@H](Cc1c[nH]c2ccccc12)NC(=O)[C@@H](N)Cc1cnc[nH]1)C(=O)NN(Cc1ccc(O)cc1)C(=O)N[C@H](Cc1ccccc1)C(=O)N[C@@H](CCCCN)C(N)=O (H-H[dW]A[azaTyr][dF]K-NH2)
Study System: Platelet glycoprotein 4 (Rattus norvegicus) (UniProt Q07969)
fold change (FC): 14.8
//
Molecule: C[C@H](NC(=O)[C@@H](Cc1c[nH]c2ccccc12)NC(=O)[C@@H](N)Cc1cnc[nH]1)C(=O)NN(Cc1ccc(Cl)cc1)C(=O)N[C@H](Cc1ccccc1)C(=O)N[C@@H](CCCCN)C(N)=O
Study System: Platelet glycoprotein 4 (Rattus norvegicus) (UniProt Q07969)
fold change (FC): 3.4

I = Cc1[nH]c2ccccc2c1C[C@@H](NC(=O)[C@@H](N)Cc1c[nH]cn1)C(=O)N[C@@H](C)C(=O)N[C@@H](Cc1c[nH]c2ccccc12)C(=O)N[C@H](Cc1ccccc1)C(=O)N[C@@H](CCCCN)C(N)=O (H-H[dTrp(2-Me)]AW[dF]K-NH2)
II = C[C@H](N)C(=O)N[C@H](Cc1c[nH]c2ccccc12)C(=O)N[C@@H](C)C(=O)NN(Cc1ccc(Br)cc1)C(=O)N[C@H](Cc1ccccc1)C(=O)N[C@@H](CCCCN)C(N)=O
Select one: I or II . Criterion: greater recorded fold change (FC). Record your answer as the label of the chosen record.
I
(I: 18.1, II: 2.2)

* * *

- Study System: Platelet glycoprotein 4 (Rattus norvegicus)
- Assay Details: Inhibition of photoactivatable [125I]-Tyr-Bpa-Ala-hexarelin binding to CD36 in Sprague-Dawley rat heart membranes after 60 mins by SDS-PAGE analysis
Starred links: 1 amine or outer side, 2 acyl side, 3 side chain; linkers in the order of their positions; H or OH if unused. Non-standard residues stand in square brackets, D forms with d. Residues, ends and D or L forms follow the SMILES beside them. azaPhe = O=C(N(Cc1ccccc1)N[*:1])[*:2]
Assay Readout: IC50 (µM)

Molecule: C[C@H](NC(=O)[C@@H](Cc1c[nH]c2ccccc12)NC(=O)[C@@H](N)Cc1cnc[nH]1)C(=O)NN(Cc1ccccc1)C(=O)N[C@H](Cc1ccccc1)C(=O)N[C@@H](CCCCN)C(N)=O (H-H[dW]A[azaPhe][dF]K-NH2)
Recorded Number: 10.1

P = Cc1cc(F)cc(C)c1CN(NC(=O)[C@H](C)NC(=O)[C@@H](Cc1c[nH]c2ccccc12)NC(=O)[C@@H](N)Cc1cnc[nH]1)C(=O)N[C@H](Cc1ccccc1)C(=O)N[C@@H](CCCCN)C(N)=O
Q = C[C@H](NC(=O)[C@@H](Cc1c[nH]c2ccccc12)NC(=O)[C@@H](N)Cc1cnc[nH]1)C(=O)NN(Cc1cccc(O)c1)C(=O)N[C@H](Cc1ccccc1)C(=O)N[C@@H](CCCCN)C(N)=O
R = C[C@H](NC(=O)[C@@H](Cc1c[nH]c2ccccc12)NC(=O)[C@@H](N)Cc1cnc[nH]1)C(=O)NN(Cc1ccc(Cl)cc1)C(=O)N[C@H](Cc1ccccc1)C(=O)N[C@@H](CCCCN)C(N)=O
Rank items: key IC50, increasing. Provide the labels, sequenced as the question asks.
P, R, Q
(P: 5.58 µM, R: 8.36 µM, Q: 28.2 µM)
